# system_tested: UniProt:P08911
# Sequence (P08911 whole entry): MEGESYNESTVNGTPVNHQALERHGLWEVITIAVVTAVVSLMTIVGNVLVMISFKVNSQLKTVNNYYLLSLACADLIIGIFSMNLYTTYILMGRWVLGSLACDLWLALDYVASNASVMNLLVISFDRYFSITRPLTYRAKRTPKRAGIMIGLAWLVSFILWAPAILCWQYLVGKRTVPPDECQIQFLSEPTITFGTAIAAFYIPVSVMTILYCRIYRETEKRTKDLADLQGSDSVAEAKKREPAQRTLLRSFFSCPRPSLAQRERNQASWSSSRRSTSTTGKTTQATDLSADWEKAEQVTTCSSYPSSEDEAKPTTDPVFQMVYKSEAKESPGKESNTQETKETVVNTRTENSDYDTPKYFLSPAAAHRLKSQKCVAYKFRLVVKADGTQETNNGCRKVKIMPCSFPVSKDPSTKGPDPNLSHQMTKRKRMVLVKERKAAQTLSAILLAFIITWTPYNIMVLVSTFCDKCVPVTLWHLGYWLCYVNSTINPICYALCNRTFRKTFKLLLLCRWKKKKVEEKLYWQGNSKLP
# assay_name: M5 PAM CRC, rat M5
observed_property: EC50 (nM)
Please state the figure in nM; there is no need to write the unit.

Please look up its EC50: "O=C1C(=O)N(CCOc2ccccc2)c2ccc(OC(F)(F)F)cc21"
500

###

# Tested on: M1-M4
# assay_name: human mAChR selectivity versus M1-M4
# Format: cell-based
# experimental_parameters: read-out: M1-M4 EC50s; human data is the same as rat
observed_property: EC50

Value lookup for EC50; key = "O=C1C(=O)N(CCOc2ccccc2)c2ccc(OC(F)(F)F)cc21"
> 30 µM
